Values compiled from paper PMC7156458.

Catalogue of Fig. 7a Th-T reading, mean of three wells values
- ASSAYED TARGET: UniProt:P05067
- ASSAY SUMMARY: Th-T (thioflavin-T) assay of Aβ42 aggregation
- Type: biochemical
- RUN CONDITIONS: column suffix _50; reading M102
The response must contain the number and no unit.

Field: example entries. Status: answers known.
* C=C1CC[C@@H]2[C@](C)(CC[C@H]3O[C@H](C=C(C)C)C[C@@]23C)[C@@H]1Cc1c(OC)oc(CO)c(C)c1=O [Compound 20] | 2.09
* C=C1CCC2C(C)(CCC=C(C)C)C(O)CCC2(C)C1Cc1c(OC)oc(CO)c(C)c1=O (centres unmarked) [Compound 12] | 1.3937
* C=C1CCC2C(C)(CCC=C(C)C)C(O)CCC2(C)C1Cc1c(OC)oc(CO)c(C(=O)OC)c1=O (centres unmarked) [Compound 13] | 0.471
* C=C1CC[C@@H]2[C@](C)(CC[C@H]3O[C@H](C=C(C)C)C[C@@]23C)[C@@H]1Cc1c(OC)oc(CO)c(C(=O)OC)c1=O [Compound 21] | 0.4727

Next compound, Fig. 7a Th-T reading, mean of three wells to be filled in.
Quick one: Fig. 7a Th-T reading, mean of three wells for C=C1CCC2C(C)(CCC=C(C)C)C(O)CCC2(C)C1Cc1c(OC)oc(C)c(C(=O)OC)c1=O (centres unmarked) [Compound 14] ?
1.3987

---

- ASSAYED TARGET: Aβ42 (Homo sapiens, UniProt P05067)
- Sequence (P05067 672-713): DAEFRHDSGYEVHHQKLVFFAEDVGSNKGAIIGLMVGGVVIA
- ASSAY SUMMARY: Th-T (thioflavin-T) assay of Aβ42 aggregation
- Type: biochemical
- RUN CONDITIONS: measurement M16; source data, Ab alone and No Ab as controls
Exam item: assign t to entries whose Th-T assay plate reading, mean of three wells (Supplementary Fig. 47) is below 2 and f to entries at or above 2. Note that a value of exactly 2 receives f.

// known answers, use as guide
- C=C1CC[C@H]2[C@]3(C)C[C@@H](C=C(C)C)O[C@H]3CC[C@]2(C)[C@@H]1Cc1c(OC)oc(CO)c(C)c1=O: f
- C=C1CCC2C(C)(CCC=C(C)C)C(O)CCC2(C)C1Cc1c(OC)oc(C)c(C(=O)OC)c1=O (stereo not shown): t
- C=C1CC[C@H]2[C@]3(C)C[C@H](C=C(C)C)O[C@H]3CC[C@]2(C)[C@@H]1Cc1c(OC)oc(CO)c(C)c1=O: f
- C=C1CCC2C(C)(CCC=C(C)C)C(O)CCC2(C)C1Cc1c(O)c(C)c(C)oc1=O (stereo not shown) [Compound 9, higginsianin B]: t

Hi there! Is Th-T assay plate reading, mean of three wells (Supplementary Fig. 47) for CC(C)=CCC/C(C)=C/CC/C(C)=C/CC/C(C)=C/Cc1c(O)c(C)c(C)oc1=O below 2, do you know?
f

Ok, now C=C1CCC2C3(C)CC(C=C(C)C)OC3CCC2(C)C1Cc1c(OC)oc(C)c(C)c1=O (stereo not shown)
f

---

We begin with a simple list: items and their reported Th-T fluorescence, mean of three wells.
- ASSAYED TARGET: UniProtKB P05067
- ASSAY SUMMARY: Th-T (thioflavin-T) assay of Aβ42 aggregation
- Assay type: biochemical
- RUN CONDITIONS: reading M34; Supplementary Fig. 47 source data
Please give only the number in your answer, with no unit.

- C=C1CC[C@H]2[C@]3(C)C[C@H](C=C(C)C)O[C@H]3CC[C@]2(C)[C@@H]1Cc1c(OC)oc(C)c(C)c1=O: 4.107

Any idea what Th-T fluorescence, mean of three wells was measured for C=C1CC[C@@H]2[C@](C)(CC[C@H]3O[C@H](C=C(C)C)C[C@@]23C)[C@@H]1Cc1c(O)c(C)c(C)oc1=O ?
3.0036

Same thing, different compound: C=C1CCC2C(C)(CC(=O)C=C(C)C)C(O)CCC2(C)C1Cc1c(OC)oc(CO)c(C)c1=O (centres unmarked)
3.333

Ok, now C=C1CC[C@H]2[C@]3(C)C[C@H](C=C(C)C)O[C@H]3CC[C@]2(C)[C@@H]1Cc1c(O)c(C)c(C)oc1=O
2.9825

Repeat with C=C1CCC2C3(C)CC(C=C(C)C)OC3CCC2(C)C1Cc1c(OC)oc(C)c(C)c1=O (centres unmarked)
3.8608
